All values here come from ChEMBL document CHEMBL1201862.

Here, each record is paired with measured GI50 data.
# System: OVCAR-8
# TEST DESCRIPTION: NCI tumour cell line growth inhibition, 48 h
Active and inactive are the calls of the source. Rule as the data show it: active = GI50 up to about 1.1 µM and inactive = higher.

INSERT INTO measurements (molecule, value_measured) VALUES
  ('CCN(CC)CCCNc1ccc2nc(C)n3c4ccc(O)cc4c(=O)c1c23', '1.95 µM (inactive)'),
  ('[O-][n+]1onc2c1-c1nonc1CC2', '46 µM (inactive)'),
  ('CCOC(=O)C(C)Sc1nnc(COc2ccc(Cl)cc2)n1-c1ccccc1 (configuration not stated)', '23.4 µM (inactive)'),
  ('O=C(CN1CCN(C(=O)OCc2ccccc2)CCN(CC(=O)N2CCCCC2)CCN(C(=O)OCc2ccccc2)CC1)N1CCCCC1', '8.61 µM (inactive)'),
  ('CC(=O)O[C@H]1C(=O)[C@@]2(C)[C@H]([C@H](OC(=O)c3ccccc3)[C@]3(O)C[C@H](OC(=O)[C@H](O)[C@@H](NC(=O)C(C)(C)C)c4ccccc4)C(C)=C1C3(C)C)[C@]1(OC(C)=O)CO[C@@H]1C[C@@H]2O', '0.0668 µM (active)'),
  ('O=C(O)C#Cc1ccc([N+](=O)[O-])cc1', '> 100 µM (inactive)');

Then there is this molecule:
Record request: GI50 value, item NC(=O)NC(=O)CCC(NS(=O)(=O)c1ccccc1)C(=O)NC(N)=O (configuration not stated) > 100 µM (inactive)
